system_tested: Histamine H3 receptor (Homo sapiens, UniProt Q9Y5N1)
Sequence (Q9Y5N1 whole entry): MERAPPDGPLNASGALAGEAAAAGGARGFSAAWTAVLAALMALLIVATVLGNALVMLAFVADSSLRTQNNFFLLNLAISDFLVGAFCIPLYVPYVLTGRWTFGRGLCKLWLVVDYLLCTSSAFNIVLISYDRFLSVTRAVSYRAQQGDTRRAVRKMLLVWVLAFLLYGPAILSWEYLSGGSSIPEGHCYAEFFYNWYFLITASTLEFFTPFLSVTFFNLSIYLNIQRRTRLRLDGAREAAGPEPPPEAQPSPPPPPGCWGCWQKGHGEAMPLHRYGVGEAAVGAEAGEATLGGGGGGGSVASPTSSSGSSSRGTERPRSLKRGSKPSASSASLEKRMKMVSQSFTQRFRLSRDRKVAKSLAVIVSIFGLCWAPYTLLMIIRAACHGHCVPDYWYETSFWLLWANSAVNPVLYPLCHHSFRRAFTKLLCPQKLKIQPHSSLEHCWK
method_description: Displacement of [3H]Methylhistamine from human histamine H3 receptor expressed in HEK293 cells
Format: cell-based
measurement_label: pKi
Give bare numbers, as −log10 of the molar value.

Q: pKi of c1cc(-c2nc(SCCCN3CCCCC3)nn2CCCN2CCCCC2)ccn1 on Histamine H3 receptor (Homo sapiens, UniProt Q9Y5N1)?
Result: 7.74

src = ChEMBL document CHEMBL1255507
